# subjectOfTest: Vascular endothelial growth factor receptor 1 (Homo sapiens)
# conditionInfo: at 0.1 µM;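 further: values are mean percent inhibition of FLT1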
Attribute: inhibition
observedProperty: inhibition (%)

INSERT INTO measurements (molecule, observedproperty, unitofmeasurement, result) VALUES
  ('O=C1Nc2ccccc2/C1=C/Nc1ccc(-n2cncn2)cc1', 'inhibition', '%', 4.03),
  ('Nc1nccc(-c2c(-c3ccc(F)cc3)ncn2C2CCC(O)CC2)n1 (stereo not given)', 'inhibition', '%', 0.09),
  ('CS(=O)(=O)CCNCc1cc(-c2cc3c(Nc4ccc(OCc5cccc(F)c5)c(Cl)c4)ncnc3s2)cs1', 'inhibition', '%', 0.1),
  ('C[C@@H](Oc1cc(-n2cnc3ccc(OCC4CCN(C)CC4)cc32)sc1C(N)=O)c1ccccc1Cl', 'inhibition', '%', 1.38),
  ('CCc1ccc(Oc2nccc(-c3c(-c4ccc(F)cc4)ncn3C3CCNCC3)n2)cc1', 'inhibition', '%', 2.69),
  ('CN(C)CCCNc1nccc(-c2c(-c3ccc(F)cc3)nn3cc(C(F)(F)F)ccc23)n1', 'inhibition', '%', 0.51),
  ('NS(=O)(=O)c1ccc(N/N=C2\C(=O)Nc3ccc(C(=O)NCCCn4ccnc4)cc32)cc1', 'inhibition', '%', 0.63),
  ('CCc1nccc2c1nc(-c1nonc1N)n2CC', 'inhibition', '%', -0.82),
  ('CCS(=O)(=O)c1ccc(OC)c(Nc2ncc(-c3ccccc3Cl)o2)c1', 'inhibition', '%', 3.73),
  ('COc1cc(N2CCN(C(C)C)CC2)ccc1Nc1nc(Nc2ccc(F)cc2C(=O)NC[C@@H](O)CO)c2cc[nH]c2n1', 'inhibition', '%', 1.41),
  ('CN(C)CCOc1ccc(-c2cc(-c3ccc4c(c3)CCC4=NO)c(-c3ccncc3)o2)cc1', 'inhibition', '%', -0.18),
  ('Fc1ccc(-c2ncn(C3CCNCC3)c2-c2ccnc(Oc3ccc(Oc4ccccc4)cc3)n2)cc1', 'inhibition', '%', -0.48),
  ('O=C(Nc1n[nH]c2nc(-c3ccc(O)cc3)c(Br)cc12)C1CC1', 'inhibition', '%', 2.34),
  ('COC(=O)Nc1nc2ccc(Sc3ccc(NC(=O)Nc4cc(C(F)(F)F)ccc4F)cc3)cc2[nH]1', 'inhibition', '%', 4.5),
  ('O=C(Nc1ccc(Oc2ccc3[nH]c(NC(=O)c4ccccc4)nc3c2)cc1)Nc1cc(C(F)(F)F)ccc1F', 'inhibition', '%', 5.53),
  ('O=C(Nc1n[nH]c2cc(-c3ccccc3)ccc12)C1CC1', 'inhibition', '%', 3.64),
  ('NS(=O)(=O)c1ccc(Nc2cc(-c3ccc(O)c(F)c3)n[nH]2)cc1', 'inhibition', '%', 2.34),
  ('NC(=O)c1ccc(Oc2nccc(-c3c(-c4ccc(F)cc4)ncn3C3CCNCC3)n2)cc1', 'inhibition', '%', 0.89),
  ('COc1cccc(-n2cnc3c(N/N=C/c4ccncc4)ncnc32)c1', 'inhibition', '%', -1.12),
  ('NC(=O)c1cc(-c2ccncc2)cc(-c2ccccc2)c1N', 'inhibition', '%', 1.74);
